# measurement_target: Carbonic anhydrase 12 (Homo sapiens)
# Sequence (O43570 whole entry): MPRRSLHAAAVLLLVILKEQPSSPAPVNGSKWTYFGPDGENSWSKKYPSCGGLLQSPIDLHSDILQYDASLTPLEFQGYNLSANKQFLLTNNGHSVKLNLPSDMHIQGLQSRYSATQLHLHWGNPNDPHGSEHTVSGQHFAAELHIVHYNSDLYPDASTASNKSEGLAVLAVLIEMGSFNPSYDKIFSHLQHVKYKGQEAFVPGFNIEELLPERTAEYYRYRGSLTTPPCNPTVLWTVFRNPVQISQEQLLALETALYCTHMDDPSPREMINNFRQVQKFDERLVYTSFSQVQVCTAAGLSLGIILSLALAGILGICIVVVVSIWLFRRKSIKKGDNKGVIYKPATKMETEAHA
pKi: −log10 of the molar value.
measurement_kind: pKi

As a guide, the following entries are already answered.
O=C(CN1C(=O)c2ccccc2S1(=O)=O)c1ccccc1    5.75
O=C(O)CN1C(=O)c2ccccc2S1(=O)=O    7.38
C/C=C/CN1C(=O)c2ccccc2S1(=O)=O    6.68
O=C1c2ccccc2S(=O)(=O)N1Cc1cccc(Br)c1    7.68

A. CCOC(=O)CN1C(=O)c2ccccc2S1(=O)=O
B. O=C1c2ccccc2S(=O)(=O)N1Cc1ccccc1F
Param pair: A , B . Output: the one whose pKi is numerically greater. Use the label to indicate which entry you chose.
A

I. CC(=O)CN1C(=O)c2ccccc2S1(=O)=O
II. N#Cc1ccc(CN2C(=O)c3ccccc3S2(=O)=O)cc1
Parameter metric = pKi. Return the lower-valued option from I and II . Use the label to indicate which entry you chose.
I
